measured target: PD-1/PD-L1 (Homo sapiens, UniProt Q9NZQ7)
Sequence (Q9NZQ7 19-238 limits assumed): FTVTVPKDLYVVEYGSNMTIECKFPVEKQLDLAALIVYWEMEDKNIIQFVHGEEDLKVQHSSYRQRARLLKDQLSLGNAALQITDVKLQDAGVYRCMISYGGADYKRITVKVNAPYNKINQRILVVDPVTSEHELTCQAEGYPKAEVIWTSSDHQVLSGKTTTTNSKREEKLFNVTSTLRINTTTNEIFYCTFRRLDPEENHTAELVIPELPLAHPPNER
protocol: PD-1/PD-L1 biochemical protein-protein interaction assay (ALPHA)
measurement context: 0.3 nM His tagged PD-L1, 2.5 nM biotinylated Fc-PD-1, 60 minutes at 25° C., read-out: IC50 PD-L1-PD-1 Alpha IC50-mono PD-L1-fcP-D1

# molecule, IC50, nM
measured = [
    ("CNC(=O)COc1nc(O[C@H]2CCc3c(-c4cccc(-c5ccc(OCCNC[C@@H](O)CC(=O)O)cc5)c4C)cccc32)c(Br)cc1CNC[C@@H](O)CC(=O)O", 0.091),
    ("COc1nc(O[C@H]2CCc3c(-c4cccc(-c5ccc6c(c5)C[C@@H](N)C6)c4Cl)cccc32)c(Br)cc1CN[C@@](C)(CO)C(=O)O", 0.064),
    ("C=Cc1cc(CNCCO)c(OCc2cncc(C#N)c2)cc1OCc1cccc(-c2cccc(COc3cc(OCc4cncc(C#N)c4)c(CNCCO)cc3C=C)c2C)c1C", 21.6),
    ("COc1nc(O[C@H]2CCc3c(-c4cccc(-c5cnc6c(CNC[C@@H]7CCC(=O)N7)cn(C)c6n5)c4Cl)cccc32)c(Cl)cc1CN1CC(C(=O)O)C1", 0.064),
    ("Cc1c(COc2cc(OCc3cncc(C#N)c3)c(CNCCO)cc2Cl)cccc1-c1cccc(COc2ccc(CNCCO)cc2C(F)(F)F)c1C", 25.7),
]

----------
measured target: PD-1/PD-L1 interaction (Homo sapiens, UniProt Q9NZQ7)
Construct: expressed in transfected cells; host or cells: CHO cells (aAPC-PD-L1) co-cultured with Jurkat cells overexpressing PD-1 and an NFAT-luciferase reporter
Sequence (Q9NZQ7 19-290): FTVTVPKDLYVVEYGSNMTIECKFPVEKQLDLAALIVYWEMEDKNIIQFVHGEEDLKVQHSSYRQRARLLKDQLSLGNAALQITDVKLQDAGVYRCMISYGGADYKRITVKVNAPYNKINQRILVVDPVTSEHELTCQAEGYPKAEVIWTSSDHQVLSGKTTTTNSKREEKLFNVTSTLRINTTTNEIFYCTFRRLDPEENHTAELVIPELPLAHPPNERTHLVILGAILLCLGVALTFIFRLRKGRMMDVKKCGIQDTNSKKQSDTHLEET
protocol: PD-1/PD-L1 NFAT reporter co-culture assay
Assay type: cell-based
measurement context: Jurkat PD-1 NFAT-luciferase cells co-cultured with aAPC-PD-L1 CHO cells, 6 hrs at 37° C.; read-out: EC50 NFAT Luciferase
Lab note: compare EC50 with 500 nM, writing 1 if less and -1 if equal or more.

# compound, group label
rows = [
    ("COc1nc(O[C@H]2CCc3c(-c4cccc(-c5cc(C)c(CNC[C@@H]6CCC(=O)N6)c(OC)n5)c4Cl)cccc32)c(Cl)cc1CN1CC[C@@H](C(=O)O)C1 [Example 490]", 1),
    ("N#Cc1cncc(COc2nc(O[C@H]3CCc4c(-c5cccc6c5CC[C@@H]6Oc5nc(OCc6cncc(C#N)c6)c(C6=NCCN6)cc5Br)cccc43)c(Br)cc2C2=NCCN2)c1 [Example 752]", 1),
    ("Cc1c(COc2cc(OCc3cc(S(C)(=O)=O)cc(S(C)(=O)=O)c3)c(CN[C@@](C)(CO)C(=O)O)cc2Cl)cccc1-c1cccc(-c2ccc(CCCN3CC[C@@H](O)C3)cc2)c1C [Example 467]", 1),
    ("Cc1c(COc2cc(OCc3cncc(C#N)c3)c(CN(C)C)cc2Cl)cccc1-c1cccc(-c2ccc(CN(C)C)s2)c1C [Example 366]", -1),
    ("C[C@@](CO)(NCc1cc(Cl)c(O[C@H]2CCc3c(-c4cccc(-c5ccc6c(c5)CC(N)C6)c4Cl)cccc32)nc1OCc1cncc(C#N)c1)C(=O)O (stereo partly shown) [Example 795]", 1),
    ("COc1nc(OCc2cccc(-c3cccc(COc4nc(OC)c(CN5C[C@@H](O)C[C@H]5C(=O)O)cc4Cl)c3C)c2C)c(Cl)cc1CN1C[C@@H](O)C[C@H]1C(=O)O [Example 48]", 1),
    ("C[C@@](CO)(NCc1cc(Br)c(O[C@H]2CCc3c(-c4cccc(-c5ccc(C6=NCCN6)cc5)c4Cl)cccc32)nc1OCc1cncc(C#N)c1)C(=O)O [Example 737]", 1),
    ("Cc1nc(OCc2cccc(-c3cccc(COc4ccc(CNC[C@@H](O)CC(=O)O)c(C)n4)c3C)c2C)ccc1CNC[C@@H](O)CC(=O)O [Example 156]", -1),
    ("COc1nc(OCc2cccc(-c3cccc(COc4nc(OC)c(CNC(C)(C)CC(=O)O)cc4Cl)c3C)c2C)c(Cl)cc1CNC(C)(C)CC(=O)O [Example 82]", -1),
    ("COc1nc(-c2cccc(-c3cccc(-c4ccc5ncc(CN6CC7(CCC(=O)N7)C6)n5c4)c3Cl)c2Cl)ccc1CN1CC2(CCC(=O)N2)C1 [Example 614]", -1),
    ("Cc1c(COc2cc(OCc3cncc(C#N)c3)c(CNC[C@@H](O)CC(=O)O)cc2Cl)cccc1-c1cccc(-c2cn(CCCNC[C@@H](O)CC(=O)O)nn2)c1C [Example 387]", 1),
    ("COc1nc(OCc2cccc(-c3cccc(COc4nc(OC)c(CN[C@@H](CCC(N)=O)C(=O)O)cc4Br)c3C)c2C)c(Br)cc1CN[C@@H](CCC(N)=O)C(=O)O [Example 115]", -1),
    ("COc1nc(-c2cccc(-c3cccc(-c4ccc5ncc(CNC[C@@H]6CCC(=O)N6)n5c4)c3Cl)c2Cl)ccc1CNC[C@@H]1CCC(=O)N1 [Example 622]", -1),
]
